test system: Colon cancer organoid; assay: Targeting of F14 CAF-induced therapy resistance in O23 CRC organoid-stroma co-culture. Cell viability is reported without Gefitinib.; assay type: functional, Homo sapiens; conditions: Homo sapiens, Concentration 10 uM; read-out: Cell Viability
Examples of compounds with documented viability at 10 µM follow.
Quantity measured: viability at 10 µM

# Compound, Quantity measured, Recorded measurement
data = [
    ("Cc1ccc2nc(CNCCCOc3ccccc3)cc(O)c2c1 [UCSF924]", "viability at 10 µM", "119%"),
    ("CCS(=O)(=O)c1cc2cc(C[C@](O)(CC(C)(C)c3ccc(F)cc3C(N)=O)C(F)(F)F)[nH]c2cn1 [BI 653048]", "viability at 10 µM", "161%"),
    ("CNC(=O)c1ccccc1Nc1cc(Nc2ccc(N3CCOCC3)cc2OC)ncc1C(F)(F)F [VS-4718]", "viability at 10 µM", "22.4%"),
    ("Nc1nc(NCc2ccccc2)nc(-c2cccc(CO)c2)n1 [ZINC32547799]", "viability at 10 µM", "139%"),
    ("c1ccc(N2CCN(Cc3nc4ccccc4[nH]3)CC2)nc1", "viability at 10 µM", "163%"),
    ("O=C(c1ccc(C(=O)N2CCC(N3CCCC3)CC2)c(Nc2ccccc2)c1)N1CCC(N2CCCC2)CC1", "viability at 10 µM", "122%"),
    ("Cc1c(N2CCCC2)nc2ccc(Br)cc2c1C(=O)NC[C@H](CCC(=O)O)c1ccccc1Cl [BAY-6672]", "viability at 10 µM", "81.2%"),
]

---

test system: Colon cancer organoid; experiment: Targeting of F14 CAF-induced therapy resistance in O23 CRC organoid-stroma co-culture. Cell viability is reported with SN-38.; assay type: functional, Homo sapiens; conditions: Homo sapiens, Concentration 10 uM; read-out: Cell Viability
Please respond with True when measured viability at 10 µM is strictly beneath 60%, and with False in all other cases.

# Molecule, Category
data = [
    ("Cc1cc(CN)cc(C)c1-c1ncn(C)c1-c1cncn1C", "False"),
    ("COc1cc(Nc2ccnc3ccc(Br)cc23)cc(OC)c1OC", "True"),
    ("Cc1noc(C)c1-c1cnc2c(-c3ccc(C(=O)O)cc3)cn([C@@H](C)c3ccccn3)c2c1 [PLX-51107]", "False"),
    ("CCCOc1ccn2c(C(C)=O)cc(-c3cccc(OC)c3)c2c1", "False"),
]

---

system: Colon cancer organoid; assay: Targeting of F14 CAF-induced therapy resistance in O23 CRC organoid-stroma co-culture. Cell viability is reported with SN-38.; type: functional, Homo sapiens; details: Homo sapiens, Concentration 10 uM; read-out: Cell Viability
Examples of compounds with documented viability at 10 µM follow.

# Compound, viability at 10 µM [%]
data = [
    ("Cc1c(NC(=O)c2ccc(C(C)(C)C)cc2)cccc1-c1cn(C)c(=O)c(Nc2ccc(C(=O)N3CCOCC3)cc2)n1", 56.9),
    ("COc1ccc(CCc2nc3cc(-c4c(C)noc4C)ccc3n2C[C@H](C)N2CCOCC2)cc1Cl", 78.6),
    ("Cc1ccc2nc(CNCCCOc3ccccc3)cc(O)c2c1 [UCSF924]", 63.9),
    ("O=C(O)c1cc(-c2ccc(C3CCNCC3)cc2)c2ccc(-c3ccc(C(F)(F)F)cc3)cc2c1", 60.3),
    ("CNC(=O)c1ccc(Nc2ncc(C(F)(F)F)c(NCc3nccnc3N(C)S(C)(=O)=O)n2)cc1 [DEFACTINIB]", 39.9),
]
